# System: CCD-18Co fibroblasts
# ASSAY COMMENT: MTT assay, CCD-18Co
# Format: cell-based
# SETUP CONDITIONS: Homo sapiens, CCD-18Co, read-out: IC50 CCD-18Co 48 h, 48 h
Listing of recorded IC50 by entry.

| COMPOUND | REPORTED VALUE |
| --- | --- |
| COC(=O)Cc1cc(=O)oc2cc(OCCCCCCCCN3CCN(CCNC(=O)Cc4cc(=O)oc5cc(O)ccc45)CC3)ccc12 [12e] | > 100 µM |

Ask | Please give the documented IC50 of COC(=O)Cc1cc(=O)oc2cc(OCCCCCCCN3CCN(CCNC(=O)Cc4cc(=O)oc5cc(O)ccc45)CC3)ccc12 [12d]
Reply | > 100 µM
